System: EKVX NSCLC
Test method notes: NCI tumour cell line growth inhibition, 48 h
Recorded metric: TGI

Compound | Endpoint result
Cc1ccc2c(c1)[nH]c(=S)n2C=C(C(N)=O)C(N)=O | > 100 µM
COc1cccc(-c2nc3ccccc3c(=O)[nH]2)c1 | 87.7 µM
O[C@H]1[C@H]2c3cc4c(cc3CN3CCC(=C[C@@H]1O)[C@H]23)OCO4 | 10.8 µM
O=[N+]([O-])c1cnc(Sc2ccncn2)s1 | 22.1 µM
C=C(C)[C@@H]1CCC2=C[C@@H](OC2=O)[C@@H](C(=C)C)C2=CC(C(=O)O)=C(C1)O2 | > 100 µM
c1ccc(C(C2=Nc3cccc4cccc(c34)N2)c2ccccc2)cc1 | 80.7 µM
Cc1cc(=O)n2[nH]c(-c3ccc(C(C)(C)C)cc3)cc2n1 | 59.1 µM
CSC1=C(C#N)C(=S)N=C(N)C1C(=O)Nc1ccc(C)cc1 (stereo not drawn) | > 100 µM
CC(C)=C1C(=O)C[C@]2(C)C[C@H]3O[C@]3(C)CC[C@@H]3O[C@@]3(C)CC[C@@H]12 | > 50 µM
C/C(=C\CO)CC/C=C(\C)CNc1c(F)c(F)c(F)c(F)c1F | 98.3 µM
O=C1N(Cl)C(=O)C(c2ccc(Cl)cc2)(c2ccc(Cl)cc2)N1Cl | > 100 µM
CC1=C(C(=O)OCCO[N+](=O)[O-])C(c2cccc([N+](=O)[O-])c2)C(C(=O)OC(C)C)=C(C)N1 (stereo not drawn) | 48.9 µM
CN(C)c1ccc(-c2cc(-c3ccc(Nc4nc(Nc5ccc(Cl)cc5)nc(Nc5ccc(Cl)cc5)n4)cc3)no2)cc1 | > 100 µM
COc1c2c(cc3c1C(=O)c1c(O)cccc1C3=O)CC(O)CC2 (stereo not drawn) | > 100 µM
C[N+](C)(CCCn1ccnc1[N+](=O)[O-])CCCn1ccnc1[N+](=O)[O-] | > 100 µM
CCNC1C2(CCCCC2)NC(=O)C12CCCCC2 (stereo not drawn) | > 100 µM
O=C1NC2(CCCCC2)C2CCCCC(O)C12 (stereo not drawn) | > 100 µM
Cc1c(-c2ccc(O)cc2)n(CCCCCCNCCOC(=O)NCCCc2ccc(N(CCCl)CCCl)cc2)c2ccc(O)cc12 | 9.89 µM
COc1cc2nc(C)nc(N[C@H](C)c3cc(N)cc(C(F)(F)F)c3)c2cc1O[C@H]1CCOC1 | 26.5 µM
N#CC(C#N)=C1C(=Cc2ccc(OCCCCCCCCCCSSCCCCCCCCCCOc3ccc(C=C4C(=C(C#N)C#N)c5ccccc5C4=C(C#N)C#N)cc3)cc2)C(=C(C#N)C#N)c2ccccc21 | 43.1 µM
CC(=O)Oc1c(C)c2c(c3ncccc13)OC(C)C2 (stereo not drawn) | 30.8 µM
O=c1c2cccnc2n2n1Cc1ccccc1C2 | > 100 µM
NC(=O)c1ccc(C(=O)Nc2ccc([As](=O)(O)O)cc2)cc1 | > 100 µM
Nc1ncc(Br)c(NCC2(CO)CCC2)n1 | > 100 µM
O=[S@@]1Nc2ccc(Br)cc2S1 | > 100 µM
COc1ccc(NC(=S)Nc2cc(C)cc(C)n2)cc1 | > 100 µM
O=C(O)C(Cc1ccccc1)N1C(=O)N/C(=C\c2ccc(F)cc2)C1=O (stereo not drawn) | > 100 µM
NC(CCc1nc(-c2ccc(Cl)cc2)cs1)C(=O)O (stereo not drawn) | > 100 µM
C=CC[C@H]1O[Si](C(C)(C)C)(C(C)(C)C)[C@H](C)[C@H]1C | > 100 µM
CN(CC(=O)O)S(=O)(=O)c1ccc2ccccc2c1 | > 100 µM
Cn1c(=O)c2c3ccccc3n(C)c2n(C)c1=O | > 100 µM
S=c1nc2sc3c(c2c(Nc2ccc(Cl)cc2)[nH]1)CCCC3 | > 100 µM
Cc1cc2nc(C(Cl)Cl)nc(-c3ccc(Cl)cc3)n2n1 | 4.3 µM
CCc1ccc2c(c1)C(=O)c1c-2n(CCCBr)c(=O)c2cc([N+](=O)[O-])ccc12 | > 50 µM
CSc1ccccc1C#C/C=C\C#Cc1ccccc1N1CCCC1=O | > 50 µM
CCCCS(=O)(=O)CCC(N)P(=O)(O)O (stereo not drawn) | > 100 µM
COc1ccc(-n2/c(=N/C(=S)N(C)C)ss/c2=N\C(=S)N(C)C)cc1 | > 100 µM
CSc1ccc(/C=C2\CN(C)C/C(=C\c3ccc(SC)cc3)C2=O)cc1 | > 100 µM
CCCCCCCC(=O)SCC/C=C/[C@@H]1CC(=O)NCc2cccc(n2)C2=N[C@@](C)(CS2)C(=O)N[C@@H](C(C)C)C(=O)N1 | > 33.3 µM
CC(=O)Nc1oc(C)c(C)c1S(=O)(=O)c1ccc(Cl)cc1 | > 100 µM
c1cc2c(cc1NC1=NCCO1)CCC2 | > 10 µM
NC1c2c(Br)sc(N3CCCC3)c2C(=O)C1O (stereo not drawn) | > 50 µM
N#Cc1cccc2c1Sc1ccccc1N2 | 97.4 µM

---

Tested on: SK-MEL-5 melanoma
Test method notes: NCI tumour cell line growth inhibition, 48 h; in the data active means GI50 below about 0.43 µM; inactive means the rest
Outcome codes: active, inactive

Compound | Group
COc1cc2nc(-c3ccc(C(F)(F)F)cc3)cc(OCCCN3CCC(O)CC3)c2cc1OC | inactive
COc1cc(C(=O)/C=C/c2sc(Cl)nc2Cl)cc(OC)c1OC | inactive
CCc1ccc2c(c1)C(=O)c1c-2n(CCCBr)c(=O)c2cc([N+](=O)[O-])ccc12 | inactive
NC(CSC(c1ccccc1)(c1ccccc1)c1ccc2c(c1)OCO2)C(=O)O (centres undefined) | active

---

Recorded measurements of TGI, one per entry
Tested on: HL-60(TB) leukemia
Test method notes: NCI tumour cell line growth inhibition, 48 h
Recorded metric: TGI

Molecule | Endpoint result
NC(N)=N/N=C/c1c(-c2ccc(Cl)c([N+](=O)[O-])c2)nc2sc(Cl)cn12 | > 100 µM
CCN(CC)c1ccc2cc(C(N)=O)c(=N)oc2c1 | > 100 µM
O=C(O)c1cc(C(=O)O)cc(N2C(=O)c3ccccc3C2=O)c1 | > 100 µM
COC1(c2ccc(Cl)cc2)SC=C(C)n2c1noc2=O (stereo unspecified) | > 100 µM
COc1cc2c(c(OC)c1O)C(=O)C(OC)C(c1ccc(O)c(O)c1)O2 (stereo unspecified) | 3.62 µM
COC(=O)NC(Nc1ccccn1)(C(F)(F)F)C(F)(F)F | > 100 µM
COc1cc(-c2ccc(Br)[nH]2)[nH]c1C=NCC(C)C | 3.9 µM
CC(=O)Nc1oc(C)c(C)c1S(=O)(=O)c1ccc(Cl)cc1 | > 100 µM
S=c1nc2sc3c(c2c(Nc2ccc(Cl)cc2)[nH]1)CCCC3 | > 100 µM
Cn1c2ccc([N+](=O)[O-])cc2c(=O)n1Cc1ccccc1F | > 100 µM
NC1c2c(Br)sc(N3CCCC3)c2C(=O)C1O (stereo unspecified) | > 50 µM

---

Tested on: MDA-MB-435
Recorded metric: GI50

Compound | Endpoint result
CC(C)c1ccc(C(C)C(=O)N(CC2=C(C(C)c3ccccn3)c3ccccc3C2)C(C)C)cc1 (centres undefined) | 3.73 µM
O=C1c2cccnc2-c2nc(-c3ccccc3[N+](=O)[O-])cc3c2c1nc1ccccc13 | 7.1 µM
CCCCCCCC(=O)SCC/C=C/[C@@H]1CC(=O)NCc2cccc(n2)C2=N[C@@](C)(CS2)C(=O)N[C@@H](C(C)C)C(=O)N1 | 0.739 µM
CC1=C(C#N)C23C(=O)c4ccccc4C(O)=C2C(=O)C=CC3(O)N1Cc1ccccc1 (centres undefined) | 38.6 µM

---

Tested on: MCF7 breast
Test method notes: NCI tumour cell line growth inhibition, 48 h
Recorded measurements of TGI, one per entry

Compound | Assayed system | TGI
CCc1ccc2c(c1)C(=O)c1c-2n(CCCBr)c(=O)c2cc([N+](=O)[O-])ccc12 | MCF7 breast | > 50 µM
CCOC(=O)Nc1nc2ccc(OCC)cc2s1 | MCF7 breast | > 100 µM
NC(CSC(c1ccccc1)(c1ccccc1)c1ccc2c(c1)OCO2)C(=O)O (stereo not given) | MCF7 breast | 40.2 µM
COC(=O)NC(Nc1ccccn1)(C(F)(F)F)C(F)(F)F | MCF7 breast | > 100 µM
O=C(CN1CCN(c2cc3c(cc2F)c(=O)c(C(=O)N/N=C/c2ccccc2O)cn3C2CC2)CC1)N/N=C\c1ccccc1O | MCF7 breast | > 100 µM

---

Test system: SF-295 CNS
Test method notes: NCI tumour cell line growth inhibition, 48 h
Recorded metric: TGI (µM)

Molecule | Qualifying sign | Endpoint result
CN(Cc1cnc2nc(N)nc(N)c2n1)c1ccc(C(=O)NCCS(=O)(=O)O)cc1 | > | 100
CC1OC(OC2C(O[C@H]3CC[C@@H]4C(=CC[C@@H]5[C@@]4(C)C(=O)C[C@]4(C)[C@@H]([C@H](C)CC[C@@H](O)C(C)(C)O)CC[C@@]54C)C3(C)C)OC(CO)C(O)C2O)C(O)C(O)C1O (stereo not given in full) | > | 100
Cc1cccc2oc3c(CC(=O)O)cccc3c(=O)c12 | > | 100
N#CC(C#N)=C1C(=Cc2ccc(OCCCCCCCCCCSSCCCCCCCCCCOc3ccc(C=C4C(=C(C#N)C#N)c5ccccc5C4=C(C#N)C#N)cc3)cc2)C(=C(C#N)C#N)c2ccccc21 | = | 45.7
O=C(Nc1ccc(I)cc1)c1cc([N+](=O)[O-])ccc1O | = | 39.8
